Tested on: velvetleaf
Assay: Test A pre-/postemergence herbicide test
Type: in vivo, Abutilon theophrasti
Conditions: Preemergence, 500 g ai/ha; visual rating, 0 to 100 scale (0 no effect, 100 complete control)
From the text: […] Plants ranged in height from 2 to 10 cm and were in the one- to two-leaf stage for the postemergence treatment. Treated plants and untreated controls were maintained in a greenhouse for approximately ten days, after which time all treated plants were compared to untreated controls and visually evaluated for injury. […]
Recorded Velvetleaf plant response rating, one value per entry.
Keep the answer to the number alone.

The following compounds have reported results that may help.
# compound, measurement_target, measured
data = [
    ("CC(=NO)c1cccc(NC(=O)c2cc(C(C)(C)C)nn2C(C)C)c1 [Compound 110]", "velvetleaf", 10),
    ("CCOC(=O)c1cccc(NC(=O)c2cc(C(C)(C)C)nn2CC)c1OC [Compound 97]", "velvetleaf", 0),
    ("CCOC(=O)c1ccc(F)c(NC(=O)c2cc(C(C)(C)C)nn2CC)c1 [Compound 70]", "velvetleaf", 10),
    ("CCn1nc(C(C)(C)C)cc1C(=O)Nc1cccc(C(=O)OC(C)(C)C)c1 [Compound 98]", "velvetleaf", 0),
    ("C=Cn1nc(C(C)(C)C)cc1C(=O)Nc1cccc(C(C)=NO)c1 [Compound 114]", "velvetleaf", 35),
    ("CCn1nc(C(C)(C)C)cc1C(=O)Nc1cccc(C(=O)OCC(F)(F)F)c1 [Compound 83]", "velvetleaf", 0),
]

Now for the compound whose Velvetleaf plant response rating we want.
Noted for CCn1nc(C(C)(C)C)cc1C(=O)Nc1cccc2c1CCN(C1CC1)C2=O [Compound 64] : its Velvetleaf plant response rating reads 10
